Read-out: Interferon-gamma inducible Protein 10 (IP10), CXCL10 (gene 3627)
protocol-description: BSK_hDFCGF_IP10: BioMAP Diversity Plus: hDFCGF Assay for Interferon-gamma inducible Protein 10 (IP10) Biomarker Activity (AID 2283053)
test-context: primary human foreskin fibroblasts; actives raise or lower the signal
Procedure: BSK_hDFCGF is a cell-based, multiplexed-readout assay that uses foreskin fibroblast, a human skin primary cell, with measurements taken at 24 hours after chemical dosing in a 96-well plate.BSK_hDFCGF_IP10 is an assay component measured in the BSK_hDFCGF assay. It measures IP-10 antibody related to regulation of gene expression using ELISA technology.Data from the assay component BSK_hDFCGF_IP10 was analyzed into 1 assay endpoint. […]
Calls of active or inactive are those of the source. The calls were made as follows: active = hit-call score of the fitted dose curve at least 0.9, where 1 is the maximum; inactive = score below 0.9.
Labels: active, inactive

molecule	class-label
COC(=O)c1sccc1S(=O)(=O)NC(=O)Nc1nc(C)nc(OC)n1	inactive
O=Cc1cccc(Oc2ccccc2)c1	inactive
CCOC(=O)/C=C(C)/C=C/C[C@@H](C)CCCC(C)C	active
C(=NC1CCCCC1)=NC1CCCCC1	active
CC(C)(C)c1cc(O)ccc1O	active
CC(=O)C(Cl)C(=O)N(C)C (stereo not drawn)	inactive
CC(C)(c1ccccc1)c1ccc(O)c(C(C)(C)c2ccccc2)c1	active
ClC1=C(Cl)[C@]2(Cl)[C@H]3[C@H]([C@H]4C=C[C@H]3C4)[C@@]1(Cl)C2(Cl)Cl	inactive
COc1cc(-c2ccc(N)c(OC)c2)ccc1N	inactive
CCCCC(CC)CO[N+](=O)[O-] (stereo not drawn)	inactive
CN(C)N=O	inactive
Cc1ccccc1N	inactive
COP(=S)(OC)Oc1ccc(S(=O)(=O)N(C)C)cc1	inactive

---

system: Aryl hydrocarbon receptor (Homo sapiens)
protocol-description: ATG_Ahr_CIS: Attagene CIS-FACTORIAL HepG2 Assay for human Aryl Hydrocarbon Receptor (Ahr) (AID 2282930)
test-context: HepG2 AhR cis-factorial reporter transcription; actives raise or lower the signal
Activity calls are given as the source filed them. Rule for the calls: active = hit-call score of the fitted dose curve at least 0.9, where 1 is the maximum; inactive = score below 0.9.

compound	outcome
ClC1(Cl)C2(Cl)C3(Cl)C4(Cl)C(Cl)(Cl)C5(Cl)C3(Cl)C1(Cl)C5(Cl)C24Cl (configuration not stated)	inactive
CCC(=O)C(CC(C)N(C)C)(c1ccccc1)c1ccccc1 (configuration not stated)	inactive
CCc1ccccc1C	inactive
CC(C)OC(=O)Nc1ccccc1	inactive
[O-][Cl+2]([O-])O	inactive
COc1ccc(OC)c(C=O)c1	inactive
CC1(C)Cc2cccc(O)c2O1	inactive

---

Read-out: Intercellular Adhesion Molecule 1 (ICAM1), ICAM1 (gene 3383)
protocol-description: BSK_KF3CT_ICAM1: BioMAP Diversity Plus: KF3CT Assay for Intercellular Adhesion Molecule 1 (ICAM1) Biomarker Activity (AID 2283067)
test-context: primary human keratinocytes with fibroblasts; actives raise or lower the signal
The source made the active and inactive calls. How the source made its calls: active means hit-call score of the fitted dose curve at least 0.9, where 1 is the maximum; inactive means score below 0.9.

compound	AC50
C[C@]12CCC(=O)C[C@@H]1CC[C@@H]1[C@@H]2CC[C@]2(C)[C@@H](O)CC[C@@H]12	inactive
O=C(Nc1ccc2[nH]ccc2c1)c1cc2cc(F)ccc2n1Cc1cccc(F)c1	8.14 µM (active)
Cn1sc(Cl)cc1=O	20 µM (active)
ClC(Cl)=C(Cl)C(Cl)=C(Cl)Cl	32.4 µM (active)
CCOP(=S)(OCC)SCCS(=O)(=O)CC	inactive
Nc1cccc2ccccc12	inactive
CCNc1nc(NC(C)(C)C)nc(SC)n1	inactive
CCOP(=S)(OCC)Oc1ccc(S(C)=O)cc1 (stereo unspecified)	inactive
NC(=O)O	inactive
ClCC(Cl)CCl	inactive
COC(=O)c1sccc1S(=O)(=O)NC(=O)Nc1nc(C)nc(OC)n1	inactive
O=C1C2(Cl)C3(Cl)C4(Cl)C(Cl)(Cl)C5(Cl)C3(Cl)C1(Cl)C5(Cl)C24Cl (stereo unspecified)	33 µM (active)
CCOC(=O)/C=C(C)/C=C/C[C@@H](C)CCCC(C)C	34.5 µM (active)
C(=NC1CCCCC1)=NC1CCCCC1	20 µM (active)
O=C(O)C(F)(F)C(F)(F)C(F)(F)C(F)(F)C(F)(F)C(F)(F)F	inactive
CCSC(C)CC1CC(=O)C(C(CC)=NOC/C=C/Cl)=C(O)C1 (stereo unspecified)	inactive
CC(C)(c1ccccc1)c1ccc(O)c(C(C)(C)c2ccccc2)c1	3.68 µM (active)
CCC(=O)C(CC(C)N(C)C)(c1ccccc1)c1ccccc1 (stereo unspecified)	inactive
CCOP(=S)(OCC)SCSP(=S)(OCC)OCC	inactive
CCCCC(CC)CO[N+](=O)[O-] (stereo unspecified)	30.9 µM (active)
C[C@@H]1C[C@@H]([C@H](O)CC2CC(=O)NC(=O)C2)C(=O)[C@@H](C)C1	7.24 µM (active)
COC[C@H](C)N(C(=O)CCl)c1c(C)csc1C	inactive
NC(=S)Nc1ccccc1	inactive
ClC1(Cl)C2(Cl)C3(Cl)C4(Cl)C(Cl)(Cl)C5(Cl)C3(Cl)C1(Cl)C5(Cl)C24Cl (stereo unspecified)	inactive
O=C(O)CCC(F)(C(F)(F)F)C(F)(F)F	inactive
CC(=O)C(Cl)C(=O)N(C)C (stereo unspecified)	inactive

---

Read-out: TIMP metallopeptidase inhibitor 1 (TIMP1), TIMP1 (gene 7076)
protocol-description: BSK_hDFCGF_TIMP1: BioMAP Diversity Plus: hDFCGF Assay for TIMP metallopeptidase inhibitor 1 (TIMP1) Biomarker Activity (AID 2283062)
test-context: primary human foreskin fibroblasts; actives raise or lower the signal
Calls of active or inactive are those of the source. Rule for the calls: active = hit-call score of the fitted dose curve at least 0.9, where 1 is the maximum; inactive = score below 0.9.
quantity-name: AC50

compound	observed-result
CCCCCCCCC(=O)NCc1ccc(O)c(OC)c1	inactive
C[C@@H]1C[C@@H]([C@H](O)CC2CC(=O)NC(=O)C2)C(=O)[C@@H](C)C1	2.49 µM (active)
Oc1ccc(-c2ccccc2)cc1	inactive
CC(C)(C)c1cc(O)ccc1O	4.45 µM (active)
CC(=O)OC(c1ccccc1)C(Cl)(Cl)Cl (configuration not stated)	inactive
O=C(O)C(Cl)(Cl)Cl	inactive
CCOP(=S)(OCC)SCSP(=S)(OCC)OCC	inactive

---

system: Transcription factor Sp1 (Homo sapiens)
protocol-description: ATG_Sp1_CIS: Attagene CIS-FACTORIAL HepG2 Assay for human Specificity Protein 1 (Sp1) (AID 2282961)
test-context: HepG2 Sp1 cis-reporter transcription, actives raise or lower the signal
Calls of active or inactive are those of the source. How the source made its calls: active means hit-call score of the fitted dose curve at least 0.9, where 1 is the maximum; inactive means score below 0.9.
Labels: active, inactive

molecule	class-label
O=C/C=C/c1ccccc1	inactive
CC(=O)c1cc(C(C)(C)C)cc2c1CCC2(C)C	active
Cc1ccccc1C(=O)Nc1cccc(OC(C)C)c1	inactive
C[C@@H](Oc1ccc(Cl)cc1Cl)C(=O)O	inactive
CC(C)(OO)c1ccccc1	inactive
O=P(O)(O)CN(CP(=O)(O)O)CP(=O)(O)O	inactive
Cc1ccccc1N	inactive
CCC[CH2][Sn]([CH2]CCC)([CH2]CCC)[O]C(=O)c1ccccc1	inactive
CC(Br)C(=O)O (stereo not given)	inactive
CCOP(=S)(OCC)Oc1nc(Cl)c(Cl)cc1Cl	active
CCCCCCCCCl	inactive
COc1ccccc1OC	inactive
CC(C)CCCCCCOC(=O)c1ccccc1C(=O)OCCCCCCC(C)C	inactive
Nc1ccc(N=Nc2ccc(-c3ccc(N=Nc4c(S(=O)(=O)O)cc5cc(S(=O)(=O)O)c(N=Nc6ccccc6)c(O)c5c4N)cc3)cc2)c(N)c1	inactive
ClCc1cccnc1	active
COS(=O)(=O)c1ccc(C)cc1	inactive
CCCCCCCCC(=O)NCc1ccc(O)c(OC)c1	inactive
N#CCCO	inactive
CCC1(c2ccc(N)cc2)CCC(=O)NC1=O (stereo not given)	inactive
Nc1cccc2ccccc12	inactive
COc1cc2c(cc1OC)[C@@]13CCN4CC5=CCO[C@H]6CC(=O)N2[C@H]1[C@H]6[C@H]5C[C@H]43	inactive
OCc1ccco1	inactive
CC(C#N)CCC#N (stereo not given)	inactive
Fc1ccc(C2(Cn3cncn3)OC2c2ccccc2Cl)cc1 (stereo not given)	inactive
CC(=O)[O][Hg][c]1ccccc1	active
O=C(O)C(F)(F)C(F)(F)C(F)(F)C(F)(F)C(F)(F)C(F)(F)F	inactive
CCCCC(CC)CO[N+](=O)[O-] (stereo not given)	inactive
C=CC(=O)OCCCCCC(C)C	inactive
Oc1c(I)cc(I)cc1I	inactive
O=[N+]([O-])c1ccc2c3c(cccc13)CC2	inactive
CC(=O)C=C(C)C	inactive
CCSC(C)CC1CC(=O)C(C(CC)=NOC/C=C/Cl)=C(O)C1 (stereo not given)	inactive
N#CCc1ccc(Cl)cc1	inactive
COC[C@H](C)N(C(=O)CCl)c1c(C)csc1C	inactive
CC(=O)C(Cl)C(=O)N(C)C (stereo not given)	inactive

---

Read-out: E-selectin (Homo sapiens)
protocol-description: BSK_LPS_Eselectin: BioMAP Diversity Plus: LPS Assay for Eselectin Biomarker Activity (AID 2283077)
test-context: primary human HUVEC with PBMC; actives raise or lower the signal
Calls of active or inactive are those of the source. Rule for the calls: active = hit-call score of the fitted dose curve at least 0.9, where 1 is the maximum; inactive = score below 0.9.
Labels: 1 (active), 0 (inactive)

compound	class-label
BrCCBr	0
CCNc1nc(NC(C)(C)C)nc(SC)n1	0
C(=NC1CCCCC1)=NC1CCCCC1	1
O=C1C2(Cl)C3(Cl)C4(Cl)C(Cl)(Cl)C5(Cl)C3(Cl)C1(Cl)C5(Cl)C24Cl (stereo unspecified)	1
O=c1[nH]c(=O)[nH]c(=O)[nH]1	0
O=Cc1cccc(Oc2ccccc2)c1	0
COc1cc(-c2ccc(N)c(OC)c2)ccc1N	0
O=C(OC1CCCCC1)c1ccccc1C(=O)OC1CCCCC1	1
Oc1cccc2cccnc12	0
ClCC(Cl)CCl	0
NC(=O)O	0
CCOP(=S)(OCC)SCCS(=O)(=O)CC	0
O=C(Nc1ccc2[nH]ccc2c1)c1cc2cc(F)ccc2n1Cc1cccc(F)c1	1
C=C(C)C(=O)[O][Sn]([CH2]CCC)([CH2]CCC)[CH2]CCC	1
CCCCC(CC)CO[N+](=O)[O-] (stereo unspecified)	0
CCCCCCCCc1ccc(O)cc1	1
CC(C)(C)CC(C)(C)c1ccc(O)cc1	1
CC(C)(OO)c1ccccc1	0
O=S(=O)(c1ccc(Cl)cc1)c1ccc(Cl)cc1	0
CCC(=O)C(CC(C)N(C)C)(c1ccccc1)c1ccccc1 (stereo unspecified)	0
ClC(Cl)=C(Cl)C(Cl)=C(Cl)Cl	0
CCSC(C)CC1CC(=O)C(C(CC)=NOC/C=C/Cl)=C(O)C1 (stereo unspecified)	0
COP(=S)(OC)Oc1cc(Cl)c(Cl)cc1Cl	0
ClC1(Cl)C2(Cl)C3(Cl)C4(Cl)C(Cl)(Cl)C5(Cl)C3(Cl)C1(Cl)C5(Cl)C24Cl (stereo unspecified)	0
C[C@]12CCC(=O)C[C@@H]1CC[C@@H]1[C@@H]2CC[C@]2(C)[C@@H](O)CC[C@@H]12	1
COP(=S)(OC)Oc1ccc(S(=O)(=O)N(C)C)cc1	0
C[C@@H]1C[C@@H]([C@H](O)CC2CC(=O)NC(=O)C2)C(=O)[C@@H](C)C1	1
COc1cc(OC)nc(NC(=O)NS(=O)(=O)c2ncccc2C(=O)N(C)C)n1	0
Oc1ccc(-c2ccccc2)cc1	0
OCc1ccco1	0
CC(=O)[O][Hg][c]1ccccc1	1
Nc1cccc2ccccc12	0
COP(=S)(OC)Oc1c(Cl)cc(C)cc1Cl	0
O=C(O)CCC(F)(C(F)(F)F)C(F)(F)F	0
CC(=O)OC(c1ccccc1)C(Cl)(Cl)Cl (stereo unspecified)	0
CCN1CCC2(CC1)COc1cc3c(cc12)N(C(=O)c1ccc(-c2ccc(-c4nnc(C)o4)cc2C)cc1)CC3	1
CCOC(=O)/C=C(C)/C=C/C[C@@H](C)CCCC(C)C	1
Nc1ccc(-c2ccc(N)c(Cl)c2)cc1Cl	0
COP(=S)(OC)Oc1ccc(Sc2ccc(OP(=S)(OC)OC)cc2)cc1	0
CC(C)(C)c1cc(O)ccc1O	1
O=[N+]([O-])c1ccc(O)c([N+](=O)[O-])c1	0
O=C(O)C(F)(F)C(F)(F)C(F)(F)C(F)(F)C(F)(F)C(F)(F)C(F)(F)C(F)(F)C(F)(F)C(F)(F)F	0
Nc1ncc([N+](=O)[O-])s1	0
O=C(O)C(F)(F)C(F)(F)C(F)(F)C(F)(F)C(F)(F)C(F)(F)F	0
CC1(C)Cc2cccc(O)c2O1	0
CCOP(=S)(OCC)SCSP(=S)(OCC)OCC	0
